- condition notes: in ethanol, 308.15 K
experimental readout: solubility (mole fraction)
Just the number, please.

input: What measured solubility (mole fraction) goes with `Nc1cnc(Cl)cn1` ?
output: 0.00813

====

- condition notes: in ethylene glycol, 278.15 K
experimental readout: solubility (mole fraction)
// return just the number, without any unit appended

input: Sample `Nc1cnc(Cl)cn1` — what was its solubility (mole fraction)?
output: 0.000321

====

- condition notes: in n-propanol, 278.15 K
experimental readout: solubility (mole fraction)
Write no unit; give the number alone.

input: Entry `Nc1cnc(Cl)cn1` has what solubility (mole fraction)?
output: 0.000781

====

- condition notes: in ethylene glycol, 308.15 K
experimental readout: solubility (mole fraction)
Just the number.

input: Requested field: solubility (mole fraction). Item: `Nc1cnc(Cl)cn1`
output: 0.00102
